PROCEDURE_SUMMARY: Antioxidant activity assessed as total reducing activity after 30 mins by spectrophotometric analysis
Format: functional
READOUT: Activity
Give me the value, and tack the unit on after it.

[[record]]
chemical_smiles = "CC1=NNC(=O)Nc2c1c(=O)[nH]c1ccccc21"
reported = "2590 µmol"

[[record]]
chemical_smiles = "CC1=NNC(=S)Nc2c1c(=O)[nH]c1ccccc21"
reported = "2650 µmol"

[[record]]
chemical_smiles = "Cc1nc(=O)[nH]c2c1c(=O)[nH]c1ccccc12"
reported = "3880 µmol"

[[record]]
chemical_smiles = "COc1ccc(O)c(C(C)(C)C)c1.COc1ccc(O)cc1C(C)(C)C"
reported = "8050 µmol"

[[record]]
chemical_smiles = "Cc1noc2c1c(=O)[nH]c1ccccc12"
reported = "4010 µmol"

[[record]]
chemical_smiles = "Cc1[nH]nc2c1c(=O)[nH]c1ccccc12"
reported = "1230 µmol"

[[record]]
chemical_smiles = "Cc1cc(C(C)(C)C)c(O)c(C(C)(C)C)c1"
reported = "13100 µmol"


Now consider a different compound.
Looking up `Cc1nc(=S)[nH]c2c1c(=O)[nH]c1ccccc12` , I found its Activity recorded as 3630 µmol
